Collected TGI values appear next to each entry.
Test system: U251 CNS
Assay: NCI tumour cell line growth inhibition, 48 h

Consider the following illustrative entries.
CC(=O)[O-].CC(=O)[O-].O=C(N/N=C/c1cc(Cl)cc(Cl)c1O)c1ccncc1.[Ni+2] : > 100 µM
CO[C@H]1ON=C(c2c(C)cc(C)cc2C)[C@@H]1C1(c2ccccc2)ON=C(c2c(C)cc(C)cc2C)O1 (stereo partly specified) : > 100 µM
Cc1cc(S(=O)(=O)NC(=C(C#N)C#N)[n+]2ccc(N(C)C)cc2)c([S-])cc1Cl : > 100 µM

Form field: reported TGI of COc1ccc2oc(=Nc3ccccc3)c(C(N)=O)cc2c1
> 100 µM

Consider the molecule shown here: COc1c2c3ccccc3nc-2n(C)c2ccccc12 What is its recorded TGI?
32.7 µM

Suppose we examine the molecule CCCc1cc(=O)oc2c(C=O)c(O)cc(O)c12 ; what TGI value has been reported?
55.7 µM
